Test Description: 3H-mannitol transport across excised bovine cornea (corneal barrier integrity)
Type: in vitro ADME
Condition Context: corneas isolated at 5 min following 50 μl assay buffer drop, read-out: apparent permeability coefficient of mannitol

[
  {
    "Compound": "OC[C@@H](O)[C@@H](O)[C@H](O)[C@H](O)CO [mannitol]",
    "Readout Units": "×10⁻⁶ cm/s",
    "Papp at 4 h, 1 μCi/ml": 0.5
  }
]

---

Test Description: 3H-mannitol transport across excised bovine cornea (corneal barrier integrity)
Type: in vitro ADME
Condition Context: freshly isolated corneas, read-out: apparent permeability coefficient of mannitol

[
  {
    "Molecule": "OC[C@@H](O)[C@@H](O)[C@H](O)[C@H](O)CO",
    "Papp at 4 h, 1 μCi/ml": "0.4 ×10⁻⁶ cm/s"
  }
]
